meta.source: ChEMBL document CHEMBL1148416

Tested on: MCF7
assayRemarks: Anti-proliferative activity against MCF-7 human breast cancer cells was determined by using MCF-7 plate assay
Assay type: functional, cell-based
readoutType: IC50 (µM)
Respond with the bare value in µM.

Take a look at these entries with their results.
> print(dat)
                                   compound  reading
1  CSc1cc2c(cc1O)CCC1[C@@H]2CC[C@]2(C)C(=O)CC[C@@H]12 (single isomer, unassigned)     33.4
2  CSc1cc2c(cc1O)CC[C@@H]1[C@@H]2CC[C@]2(C)[C@@H](O)CC[C@@H]12     3.96

Ask | Find IC50 for CCSc1cc2c(cc1O)CCC1[C@@H]2CC[C@]2(C)C(=O)CC[C@@H]12 (single isomer, unassigned) on MCF7 and write it down.
Reply | 31.9

Ask | Find IC50 for CSc1cc2c(cc1OS(N)(=O)=O)CCC1[C@@H]2CC[C@]2(C)C(=O)CC[C@@H]12 (single isomer, unassigned) on MCF7 and write it down.
Reply | 0.4

Ask | Find IC50 for CSc1cc2c(cc1OS(N)(=O)=O)CC[C@@H]1[C@@H]2CC[C@]2(C)[C@@H](O)CC[C@@H]12 on MCF7 and write it down.
Reply | 0.43

Ask | Find IC50 for COc1cc2c(cc1O)CC[C@@H]1[C@@H]2CC[C@]2(C)[C@@H](O)CC[C@@H]12 on MCF7 and write it down.
Reply | 2.39

Ask | Find IC50 for CCSc1cc2c(cc1OS(N)(=O)=O)CC[C@@H]1[C@@H]2CC[C@]2(C)[C@@H](O)CC[C@@H]12 on MCF7 and write it down.
Reply | 35.3

Ask | Find IC50 for C[C@]12CC[C@@H]3c4ccc(OS(N)(=O)=O)cc4CCC3[C@@H]1CCC2=O (single isomer, unassigned) [EMATE] on MCF7 and write it down.
Reply | 22.8
